Test system: CAOV3
ASSAY TEXT: Primary qHTS to identify gynecologic anti-cancer compounds using libraries of approved drugs and bioactive compounds (AID 1345084); further: nearly all actives have a fitted effect of over 55% in size; further: potency means the concentration at half of the fitted maximal effect
ASSAY SETUP: Gynecologic cancer cell panel viability, ATPlite luminescence, 48 h; series mostly up to 57.5 µM
Inconclusive results are not listed. Calls of active or inactive are those of the source. The call rests on the fitted dose curve; in most records, active means well fitted cell-killing curve with a large enough effect; inconclusive means small, poorly fitted or top-dose-only effect, or effect the other way; inactive means flat fitted curve, though single readings scatter.
ASSAY ENDPOINT: Potency

Some solved entries appear below for comparison.
>  <COMPOUND>
CC1=CC2OC3CC(O)[C@](C)([C@@]2(C)C(O)C1=O)[C@]31CO1 (some centres not stated)

>  <Potency>
inactive

$$$$
>  <COMPOUND>
C[C@@H]1O[C@@H](O[C@H]2CC[C@@]3(C)C(CC[C@@H]4C3CC[C@]3(C)[C@@H](C5=CC(=O)OC5)CC[C@]43O)C2)[C@H](O[C@@H]2O[C@H](CO)[C@@H](O)[C@H](O)[C@H]2O)[C@H](O)[C@H]1O (some centres not stated)

>  <Potency>
1000 nM (active)

$$$$
>  <COMPOUND>
COc1ccc2c3c([nH]c2c1)C(C=C(C)C)N1C(=O)C2CCCN2C(=O)C1C3 (configuration not stated)

>  <Potency>
inactive

$$$$
>  <COMPOUND>
CC[C@H]1C[C@@H]2CC[C@@H](O2)[C@@H](C)C(=O)O[C@H](CC)C[C@H]2CC[C@H](O2)[C@H](C)C(=O)O[C@@H](C)C[C@@H]2CC[C@@H](O2)[C@@H](C)C(=O)O[C@H](CC)C[C@H]2CC[C@H](O2)[C@H](C)C(=O)O1

>  <Potency>
398 nM (active)

$$$$

For each of the compounds below, state Potency.
1. COc1ccc2[nH]c(-c3ccccc3)c(CCN(C)C)c2c1
2. COC(=O)C12C(=O)C(C)(O)C(=O)C1(C)C(C)=CC1C34CCC(OC3=O)C(C)(C)C4CCC12C (configuration not stated)

1: inactive; 2: inactive

Give its Potency value. Item: "O=C(NCCN1CCC2(CC1)C(=O)NCN2c1cccc(F)c1)c1ccc(F)c(F)c1"
inactive

----------
ASSAY TEXT: qHTS for Inhibitors of the Functional Ribonucleoprotein Complex (vRNP) of Lymphocytic Choriomeningitis Arenaviruses (LCMV): Viability assay - alamar blue signal for LCMV Primary Screen (AID 1347085); further: nearly all actives have a fitted effect of over 80% in size
ASSAY SETUP: alamar blue viability counter-screen, LCMV vRNP screen cells; series mostly up to 57.5 µM
Results filed as inconclusive are left out. Activity calls are given as the source filed them. Calls follow the shape of the full dose curve; tested in HEK293 reporter line.
Field 'call' accepts active, inactive

What outcome does the record of this test show for CC1(C)CCC[C@@]2(C)C1CC[C@@](C)(O)[C@@H]2CC[C@@](C)(O)C1CO1 (stereo not given in full) ?
inactive

Call for entry "OC[C@@H]1[C@@H](O)[C@H](O)[C@H]2[C@@H](O)CCN21" :
inactive

Tell me the assay call for "CCCCCCCCCCC/C=C\C(C)(C)/C=C\CCCC(=O)O" please.
inactive

Returns: the outcome recorded for "CC(C)NC[C@H](O)COc1cccc2[nH]ccc12" in this assay.
inactive

Assay result, entry "CC(C)COC(=O)c1ccccc1C(=O)OCC(C)C" — outcome?
inactive

----------
System: HEK293T
ASSAY TEXT: qHTS assay to identify novel small-molecules to repurpose for Merkel cell carcinoma treatment (AID 1296009); further: nearly all actives have a fitted effect of over 60% in size
ASSAY SETUP: MCC and control cell lines, CellTiter-Glo viability, 72 h; at 44.8 µM (top of the series) unless noted
Results filed as inconclusive are left out. The source made the active and inactive calls. The call rests on the fitted dose curve; in most records, active means well fitted inhibition curve with a large enough effect; inconclusive means small, poorly fitted or top-dose-only effect; inactive means flat fitted curve, though single readings scatter.
ASSAY ENDPOINT: outcome

>  <COMPOUND>
CCC1C2CC3C4N(C)c5ccccc5C45CC(C2C5O)N3C1O (centres undefined)

>  <ASSAY ENDPOINT>
outcome

>  <RESULT>
inactive

$$$$
>  <COMPOUND>
CN(CC[C@H](N)CC(=O)N[C@H]1C=C[C@@H](n2ccc(N)nc2=O)O[C@@H]1C(=O)O)C(=N)N

>  <ASSAY ENDPOINT>
outcome

>  <RESULT>
inactive [at 9.27 µM]

$$$$
>  <COMPOUND>
C=C(C)[C@@H]1[C@H]2OC(=O)[C@H]1[C@]1(O)C[C@H]3O[C@]34C(=O)O[C@H]2[C@]14C

>  <ASSAY ENDPOINT>
outcome

>  <RESULT>
inactive

$$$$
>  <COMPOUND>
Nc1ncnc2c1ncn2[C@@H]1O[C@@H]2COP(O)(=S)O[C@H]2[C@H]1O (some centres undefined)

>  <ASSAY ENDPOINT>
outcome

>  <RESULT>
inactive [at 9.27 µM]

$$$$

----------
System: HeLa
ASSAY TEXT: Primary qHTS to identify gynecologic anti-cancer compounds using libraries of approved drugs and bioactive compounds (AID 1345084); further: nearly all actives have a fitted effect of over 55% in size
ASSAY SETUP: Gynecologic cancer cell panel viability, ATPlite luminescence, 48 h; series mostly up to 57.5 µM
Records with an inconclusive call do not appear. Activity calls are given as the source filed them. Calls follow the shape of the dose curve; as a rule, active = well fitted cell-killing curve with a large enough effect; inconclusive = small, poorly fitted or top-dose-only effect, or effect the other way; inactive = flat fitted curve, though single readings scatter.
Returns: one label drawn from 1 (yes) = active, 0 (no) = inactive

Field: example entries. Status: answers known.
>  <COMPOUND>
CC[C@@H]1C[C@H]2CC[C@H](O2)[C@H](C)C(=O)O[C@@H](C)C[C@@H]2CC[C@@H](O2)[C@@H](C)C(=O)O[C@H](CC)C[C@H]2CC[C@H](O2)[C@H](C)C(=O)O[C@@H](C)C[C@@H]2CC[C@@H](O2)[C@@H](C)C(=O)O1

>  <TARGET DESC>
HeLa

>  <GROUP>
1 (yes)

$$$$
>  <COMPOUND>
C[C@H](CCC(=O)O)C[C@H](C)C[C@H](C)C(=O)/C=C(\O)[C@H](C)C[C@H](C)C/C=C/[C@@H](C)[C@@H](O)[C@@H](C)[C@@H](O)C[C@@H]1CC[C@@](C)([C@H]2CC[C@@](C)([C@@H](C)O)O2)O1

>  <TARGET DESC>
HeLa

>  <GROUP>
0 (no)

$$$$
>  <COMPOUND>
CCC1=CC2CN3CCc4c([nH]c5ccccc45)[C@@](C(=O)OC)(C2)[C@@H]13

>  <TARGET DESC>
HeLa

>  <GROUP>
0 (no)

$$$$
>  <COMPOUND>
CC(=O)OC[C@]12[C@H](OC(C)=O)C(=O)[C@@H]3[C@@H](O)[C@@]14O[C@@]3(C)COC(=O)c1cccnc1[C@@H](C)[C@H](C)C(=O)O[C@@H]([C@H](OC(C)=O)[C@@H]2OC(C)=O)[C@]4(C)O

>  <TARGET DESC>
HeLa

>  <GROUP>
0 (no)

$$$$

Turning now to a further compound:
Query: recorded result category for CCN1C[C@]2(COC)CC[C@H](O)[C@@]34C5C[C@@H]6[C@@H](OC)C[C@@](OC(C)=O)(C5[C@@H]6OC(C)=O)[C@H]([C@H](OC)C23)[C@@H]14 (stereo not given in full) in this test
0 (no)

----------
ASSAY TEXT: OV-KATE Cancer Cell Toxicity qHTS against the NCATS CANVASS Library (AID 1347345)
ASSAY SETUP: OV-KATE cells viability, CellTiter-Glo luminescence, 72 h; series mostly up to 38.3 µM
Records with an inconclusive call do not appear. Active and inactive are the calls of the source. The call rests on the fitted dose curve; in most records, active means well fitted cell-killing curve with a large enough effect; inconclusive means small, poorly fitted or top-dose-only effect; inactive means flat fitted curve, though single readings scatter.
// classify into Y = active, N = inactive

Example entries and their recorded answers appear below.
>  <MOLECULE>
CO[C@@H](/C=C/CC/C=C/C(=O)O)[C@@H](O)[C@H](C)/C=C(\C)[C@@H](O)[C@H](C)C(=O)CCCC1CC(=O)NC(=O)C1

>  <GROUP>
N

$$$$
>  <MOLECULE>
CC=C1CN(C=O)[C@H]2C[C@@H]1[C@@H](C(=O)OC)[C@@]13CCOC21Nc1ccccc13 (some centres not stated)

>  <GROUP>
N

$$$$
>  <MOLECULE>
C=C1[C@@H](C)[C@H]2[C@H](Cc3ccccc3)NC(=O)[C@]23OC(=O)/C=C/[C@H](O)CCC[C@@H](C)C/C=C/[C@H]3[C@@H]1O

>  <GROUP>
N

$$$$
>  <MOLECULE>
CC[C@@H]1CN2CC[C@@]3(O)C(=Nc4cccc(OC)c43)[C@@H]2C[C@@H]1/C(=C\OC)C(=O)OC

>  <GROUP>
N

$$$$
>  <MOLECULE>
CC1=CC2CC[C@@H]3[C@@H](C)C[C@H](C)[C@@H](C1)N23 (some centres not stated)

>  <GROUP>
N

$$$$

Field: outcome | Entry: "CNCCc1ccc(O)cc1"
N

GET /call?item= CO[C@H](c1ccccc1)[C@H]1NC(=O)C(C)NC(=O)C(C[C@@H](C)CO)N(C)C(=O)[C@@H](C(O)c2cn(C(C)(C)C3CO3)c3ccccc23)NC(=O)C(C(C)C=C(C)C)NC(=O)C(CC(C)C)N(C)C(=O)C(C(C)C)NC1=O (some centres not stated) returns the recorded outcome of this test.
N

The origin of these recorded values is PubChem BioAssay (NCATS).
